Target: Anti-CD28 scFv (VH-linker 1-VL) (biotinylated for capture on neutravidin plates)
Sequence (scFv, as listed by the source): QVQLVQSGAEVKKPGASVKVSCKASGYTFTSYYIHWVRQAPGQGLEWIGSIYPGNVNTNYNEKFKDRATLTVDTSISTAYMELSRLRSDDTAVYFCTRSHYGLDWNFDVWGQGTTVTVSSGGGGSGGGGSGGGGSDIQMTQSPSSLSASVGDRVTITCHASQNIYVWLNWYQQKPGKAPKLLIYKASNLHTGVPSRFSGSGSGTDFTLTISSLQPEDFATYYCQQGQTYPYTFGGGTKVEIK
Experiment: phage ELISA, scFv captured on plate;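 note: crude clonal phage supernatants added to wells preincubated with soluble CD28 or with blocking buffer only, bound phage read out by HRP-linked anti-M13 antibody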
measurement label: Phage binding ELISA CD28 scFv signal
# print the numeric value only

Field: example entries. Status: answers known.
MDFCPISLWHECFF [Phage-151]: 1.58
MDWCPRDLWIECFF [Phage-128]: 2.37
MDWCPRDLWHACFS [Phage-120]: 2.41
MDWCPRHMWYECFF [Phage-197]: 2.34

Proceed to the following item.
IDWCPRDLWALCFN [Phage-183] has a reported Phage binding ELISA CD28 scFv signal of 0.37

Data credit: patent US20230357447A1
